- MEASUREMENT PROTOCOL: Plasma pharmacokinetics and food effect, part C
- Type: in vivo, human
- DETAILS: human, plasma, oral, 45 mg/day, cycle 1 day 1, fasted, n = 15, read-out: Median tmax (range)
EXPERIMENTAL ENDPOINT: Tmax

## Input Data request, read-out Tmax, for Cn1cc(-c2cc(S(C)(=O)=O)ccc2OCC2CC2)c2ccccc2c1=O
## Output 1.55 h

---

- MEASUREMENT PROTOCOL: Plasma pharmacokinetics and food effect, part C
- Type: in vivo, human
- DETAILS: human, plasma, oral, 45 mg/day, day 4, fasted, n = 15, read-out: AUClast, GM (% GCV)
EXPERIMENTAL ENDPOINT: AUC(0-t) (ng·h/mL)
Field format: number, assumed ng·h/mL, no unit text.

## Input Data request, read-out AUC(0-t), for Cn1cc(-c2cc(S(C)(=O)=O)ccc2OCC2CC2)c2ccccc2c1=O
## Output 65100
